Where do the numbers come from? From patent US20230174584A1.

system: E. faecalis E1246; assay: MIC assay; format: cell-based, Enterococcus faecalis; details: E. faecalis E1246 VRE (VanA), Table 7
REPORTED_METRIC: MIC (mg/L)
Report the figure in mg/L without appending any unit label.

Illustrative cases are given below, each with its answer.
smi=CCCCCCN(CCCCCC)C(N)=Nc1ccc(CN[C@@]2(C)C[C@H](O[C@H]3[C@H](Oc4c5cc6cc4Oc4ccc(cc4Cl)[C@@H](O)[C@@H](NC(=O)[C@@H](CC(C)C)NC)C(=O)N[C@@H](CC(N)=O)C(=O)N[C@H]6C(=O)N[C@H]4C(=O)N[C@H](C(=O)N[C@H](C(=O)O)c6cc(O)cc(O)c6-c6cc4ccc6O)[C@H](O)c4ccc(c(Cl)c4)O5)O[C@H](CO)[C@@H](O)[C@@H]3O)O[C@@H](C)[C@H]2O)cc1 target_or_test_system="E. faecalis E1246" value_measured=8
smi=CCCCCCCCCCNC(N)=Nc1ccc(CN[C@@]2(C)C[C@H](O[C@H]3[C@H](Oc4c5cc6cc4Oc4ccc(cc4Cl)[C@@H](O)[C@@H](NC(=O)[C@@H](CC(C)C)NC)C(=O)N[C@@H](CC(N)=O)C(=O)N[C@H]6C(=O)N[C@H]4C(=O)N[C@H](C(=O)N[C@H](C(=O)O)c6cc(O)cc(O)c6-c6cc4ccc6O)[C@H](O)c4ccc(c(Cl)c4)O5)O[C@H](CO)[C@@H](O)[C@@H]3O)O[C@@H](C)[C@H]2O)cc1 target_or_test_system="E. faecalis E1246" value_measured=1

# evaluate next
Lookup: Entry under review: CN[C@H](CC(C)C)C(=O)N[C@H]1C(=O)N[C@@H](CC(N)=O)C(=O)N[C@H]2C(=O)N[C@H]3C(=O)N[C@H](C(=O)N[C@H](C(=O)O)c4cc(O)cc(O)c4-c4cc3ccc4O)[C@H](O)c3ccc(c(Cl)c3)Oc3cc2cc(c3O[C@@H]2O[C@H](CO)[C@@H](O)[C@H](O)[C@H]2O[C@H]2C[C@](C)(NCc3ccc(N=C(N)NC/C=C(\C)CC/C=C(\C)CCC=C(C)C)cc3)[C@H](O)[C@H](C)O2)Oc2ccc(cc2Cl)[C@H]1O . Reported MIC?
Found: 1

* * *

test system: S. aureus 880 (BR-VRSA), NR-49120; assay: MIC assay; assay type: cell-based, Staphylococcus aureus; conditions: strain BR-VRSA
REPORTED_METRIC: MIC (mg/L)
# number only, unit mg/L dropped from output

Lookup: Recorded MIC for CN[C@H](CC(C)C)C(=O)N[C@H]1C(=O)N[C@@H](CC(N)=O)C(=O)N[C@H]2C(=O)N[C@H]3C(=O)N[C@H](C(=O)N[C@H](C(=O)O)c4cc(O)cc(O)c4-c4cc3ccc4O)[C@H](O[C@H]3C[C@](C)(N)[C@@H](O)[C@H](C)O3)c3ccc(c(Cl)c3)Oc3cc2cc(c3O[C@@H]2O[C@H](CO)[C@@H](O)[C@H](O)[C@H]2O[C@H]2C[C@](C)(NCc3ccc(-c4ccc(Cl)cc4)cc3)[C@@H](O)[C@H](C)O2)Oc2ccc(cc2Cl)[C@H]1O , please?
Found: 0.25

* * *

tested on: S. aureus ATCC29213; test: MIC assay; format: cell-based, Staphylococcus aureus; settings: S. aureus ATCC29213 MSSA
REPORTED_METRIC: MIC

molecule="CN[C@H](CC(C)C)C(=O)N[C@H]1C(=O)N[C@@H](CC(N)=O)C(=O)N[C@H]2C(=O)N[C@H]3C(=O)N[C@H](C(=O)N[C@H](C(=O)O)c4cc(O)cc(O)c4-c4cc3ccc4O)[C@H](O)c3ccc(c(Cl)c3)Oc3cc2cc(c3O[C@@H]2O[C@H](CO)[C@@H](O)[C@H](O)[C@H]2O[C@H]2C[C@](C)(NCc3ccc(N=C(N)NCC45CC6CC(CC(C6)C4)C5)cc3)[C@H](O)[C@H](C)O2)Oc2ccc(cc2Cl)[C@H]1O [Compound 18]" value_measured="≤0.008 µg/mL"

Lookup: // query MIC value for entry CCCCCCCCCNC(N)=Nc1ccc(CN[C@@]2(C)C[C@H](O[C@H]3[C@H](Oc4c5cc6cc4Oc4ccc(cc4Cl)[C@@H](O)[C@@H](NC(=O)[C@@H](CC(C)C)NC)C(=O)N[C@@H](CC(N)=O)C(=O)N[C@H]6C(=O)N[C@H]4C(=O)N[C@H](C(=O)N[C@H](C(=O)O)c6cc(O)cc(O)c6-c6cc4ccc6O)[C@H](O)c4ccc(c(Cl)c4)O5)O[C@H](CO)[C@@H](O)[C@@H]3O)O[C@@H](C)[C@H]2O)cc1 [Compound 7]
Found: 0.01562 µg/mL

Lookup: So what's the measured MIC for this one? CCCCCCCCNC(N)=Nc1ccc(CN[C@@]2(C)C[C@H](O[C@H]3[C@H](Oc4c5cc6cc4Oc4ccc(cc4Cl)[C@@H](O)[C@@H](NC(=O)[C@@H](CC(C)C)NC)C(=O)N[C@@H](CC(N)=O)C(=O)N[C@H]6C(=O)N[C@H]4C(=O)N[C@H](C(=O)N[C@H](C(=O)O)c6cc(O)cc(O)c6-c6cc4ccc6O)[C@H](O)c4ccc(c(Cl)c4)O5)O[C@H](CO)[C@@H](O)[C@@H]3O)O[C@@H](C)[C@H]2O)cc1 [Compound 6]
Found: ≤0.007812 µg/mL
